system: A549; assay: Cell proliferation assay MTT, A549; conditions: read-out: Cytotoxicity IC50 Lung A549, 72 hr treated
pIC50: −log10 of the molar value.
Measured quantity: pIC50

| Molecule | Measured quantity | Result comparator | Recorded number |
| --- | --- | --- | --- |
| O=C(NO)c1ccc(Cn2c(=O)n(CCc3ccccc3)c(=O)c3ccc(C(F)(F)F)cc32)cc1 | pIC50 | = | 5.14 |
| CN1CCc2c(c3ccccc3n2Cc2ccc(C(=O)NO)cc2)C1 [Tubastatin A, reference compound] | pIC50 | < | 5.00 |
| COc1ccccc1CCn1c(=O)c2ccccc2n(Cc2ccc(C(=O)NO)cc2)c1=O | pIC50 | = | 5.24 |
| O=C(NO)c1ccc(Cn2c(=O)n(CCc3ccccc3)c(=O)c3ccccc32)cc1 | pIC50 | = | 5.43 |
| O=C(NO)c1ccc(Cn2c(=O)n(CCc3ccccc3)c(=O)c3cc(Cl)ccc32)cc1 | pIC50 | = | 5.61 |
| N#Cc1ccc2c(=O)n(CCc3ccccc3)c(=O)n(Cc3ccc(C(=O)NO)cc3)c2c1 | pIC50 | < | 5.00 |
